Biological target: Human M3 receptor (Homo sapiens, UniProt P20309)
Construct: purchased Perkin Elmer
Sequence (P20309 whole entry): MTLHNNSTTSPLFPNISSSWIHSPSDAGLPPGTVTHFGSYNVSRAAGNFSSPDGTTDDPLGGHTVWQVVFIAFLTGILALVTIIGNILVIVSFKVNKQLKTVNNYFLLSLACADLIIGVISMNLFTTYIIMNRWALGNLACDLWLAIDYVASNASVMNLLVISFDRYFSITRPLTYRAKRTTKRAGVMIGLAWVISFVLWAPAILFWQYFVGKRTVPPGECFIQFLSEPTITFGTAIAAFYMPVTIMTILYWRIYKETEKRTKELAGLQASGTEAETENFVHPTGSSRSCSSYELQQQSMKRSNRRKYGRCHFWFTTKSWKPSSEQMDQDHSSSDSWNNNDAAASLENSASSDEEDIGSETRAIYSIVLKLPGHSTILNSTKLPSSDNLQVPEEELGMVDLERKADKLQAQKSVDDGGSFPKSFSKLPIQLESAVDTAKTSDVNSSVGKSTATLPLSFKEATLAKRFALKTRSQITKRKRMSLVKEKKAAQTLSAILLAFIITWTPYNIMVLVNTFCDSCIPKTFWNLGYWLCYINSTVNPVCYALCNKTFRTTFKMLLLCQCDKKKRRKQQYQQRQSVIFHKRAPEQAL
Test: M3 Receptor Radioligand Binding Assay
Protocol: Biological Characterization M3 Receptor Radioligand Binding Assay The assay was carried out in 96-well polypropylene plates in a volume of 250 ul. […] The final assay concentration of DMSO was 0.5% (v/v). The plates were sealed and incubated for 2 h at room temperature on an orbital shaker (slow speed). […] The plates were dried before addition of 50 μl of microscint-0, sealed then read in a Trilux Microbeta scintillation counter.

molecule smiles	target desc	Ki
O=C(c1ccc(CN(Cc2ccc(CNC[C@H](O)c3ccc(O)c4[nH]c(=O)ccc34)cc2)C(=O)c2ccccc2)cc1)N1CCC(C(=O)O[C@H]2CN3CCC2CC3)(c2ccccc2)CC1	Human M3 receptor (Homo sapiens, UniProt P20309)	< 1 nM
O=C(c1ccc(CN(Cc2ccc(CNC[C@H](O)c3ccc(O)c4[nH]c(=O)ccc34)cc2)S(=O)(=O)c2ccccc2)cc1)N1CCC(C(=O)O[C@H]2CN3CCC2CC3)(c2ccccc2)CC1	Human M3 receptor (Homo sapiens, UniProt P20309)	< 1 nM

* * *

Biological target: Human M3 receptor (Homo sapiens, UniProt P20309)
Construct: purchased Perkin Elmer
Assay: M3 Receptor Radioligand Binding Assay
Settings: human M3 receptor membranes, [3H]-N-methyl scopolamine; read-out: M3 binding affinity (Ki class)
# Ki annotations

compound	Ki
O=C(CCc1ccc(OCCCCCNC[C@H](O)c2ccc(O)c3[nH]c(=O)ccc23)cc1)N1CCC(C(=O)O[C@H]2CN3CCC2CC3)(c2ccccc2)CC1	< 1 nM
O=C(Cc1ccc(CC(=O)N(CCCNC[C@H](O)c2ccc(O)c3[nH]c(=O)ccc23)Cc2ccccc2)cc1)N1CCC(C(=O)O[C@H]2CN3CCC2CC3)(c2ccccc2)CC1	< 1 nM
O=C(c1cccc(OCCCCCNC[C@H](O)c2ccc(O)c3[nH]c(=O)ccc23)c1)N1CC(C(=O)O[C@H]2CN3CCC2CC3)(c2ccccc2)C1	1 to 10 nM
O=C(c1ccc(OCCCCCCNC[C@H](O)c2ccc(O)c3[nH]c(=O)ccc23)cc1)N1CCC(C(=O)O[C@H]2CN3CCC2CC3)(c2ccc(Cl)cc2)CC1	1 to 10 nM
O=C(Cc1ccc(OCCCCCNC[C@H](O)c2ccc(O)c3[nH]c(=O)ccc23)cc1)N1CCC(C(=O)O[C@H]2CN3CCC2CC3)(c2ccccc2)CC1	< 1 nM
O=C(NCCCCNC[C@H](O)c1ccc(O)c2[nH]c(=O)ccc12)c1ccc(C(=O)N2CCC(C(=O)O[C@H]3CN4CCC3CC4)(c3ccccc3)CC2)s1	1 to 10 nM
O=C(NCc1ccc(CCNC[C@H](O)c2ccc(O)c3[nH]c(=O)ccc23)cc1)c1ccc(C(=O)N2CC(C(=O)O[C@H]3CN4CCC3CC4)(c3ccccc3)C2)cc1 [Compound 16A]	< 1 nM
CCN(CCCNC[C@H](O)c1ccc(O)c2[nH]c(=O)ccc12)C(=O)c1ccc(CCC(=O)N2CCC(C(=O)O[C@H]3CN4CCC3CC4)(c3ccccc3)CC2)cc1	1 to 10 nM
O=C(Cc1ccc(OCCCCNC[C@H](O)c2ccc(O)c3[nH]c(=O)ccc23)cc1)N1CCC(C(=O)O[C@H]2CN3CCC2CC3)(c2ccccc2)CC1	1 to 10 nM
O=C(CCc1ccc(OCc2ccc(CNC[C@H](O)c3ccc(O)c4[nH]c(=O)ccc34)cc2)cc1)N1CC(C(=O)O[C@H]2CN3CCC2CC3)(c2ccccc2)C1 [Compound 13A]	1 to 10 nM
O=C(Cc1ccc(CC(=O)N(CCCNC[C@H](O)c2ccc(O)c3[nH]c(=O)ccc23)Cc2cccc(F)c2)cc1)N1CCC(C(=O)O[C@H]2CN3CCC2CC3)(c2ccccc2)CC1	< 1 nM
